Value source: patent US11986540B2

# Run description: Repeat once-weekly IV dose toxicokinetics in dogs
# Format: in vivo
# Study conditions: male, dog, in vivo, iv, 13.9 mg/kg, dogs M, 13.9 mg/kg once-weekly IV, Day 0; read-out: Vss
Quantity name: Vd (L/kg)
Please give a number only; it is taken to be in L/kg.

Query: Consider the compound shown here: CC1(C)C(=CC=C2CCCC(C=CC3=[N+](CCCCS(=O)(=O)[O-])c4ccc(S(=O)(=O)O)cc4C3(C)C)=C2Oc2ccc(CC(NC(=O)c3ccc(NCc4cnc5nc(N)[nH]c(=O)c5n4)cc3)C(=O)O)cc2)N(CCCCS(=O)(=O)O)c2ccc(S(=O)(=O)O)cc21 (stereo not shown) [pafolacianine] What is its recorded Vd?
Reply: 2.35

====

# Run description: Phase 1a pharmacokinetics in healthy volunteers, single IV administration
# Type: in vivo, human
# Study conditions: human, plasma, intravenous, 0.025 mg/kg, in 20 ml 0.9% NaCl, 10- and 60-min infusion
Quantity name: AUC(0-t) (ng·h/mL)
Please give a number only; it is taken to be in ng·h/mL.

Query: Consider the compound shown here: CC1(C)C(=CC=C2CCCC(C=CC3=[N+](CCCCS(=O)(=O)[O-])c4ccc(S(=O)(=O)O)cc4C3(C)C)=C2Oc2ccc(CC(NC(=O)c3ccc(NCc4cnc5nc(N)[nH]c(=O)c5n4)cc3)C(=O)O)cc2)N(CCCCS(=O)(=O)O)c2ccc(S(=O)(=O)O)cc21 (stereo not shown) What is its recorded AUC(0-t)?
Reply: 63.4

====

# Run description: Single IV dose toxicokinetics in rats
# Assay type: in vivo
# Study conditions: rat, in vivo; male rats, 3.1 mg/kg single IV, Study Day 0
Quantity name: C0 (ng/mL)
Please give a number only; it is taken to be in ng/mL.

Query: Consider the compound shown here: CC1(C)C(=CC=C2CCCC(C=CC3=[N+](CCCCS(=O)(=O)[O-])c4ccc(S(=O)(=O)O)cc4C3(C)C)=C2Oc2ccc(CC(NC(=O)c3ccc(NCc4cnc5nc(N)[nH]c(=O)c5n4)cc3)C(=O)O)cc2)N(CCCCS(=O)(=O)O)c2ccc(S(=O)(=O)O)cc21 (stereo not shown) [pafolacianine] What is its recorded C0?
Reply: 6870

====

# Run description: Phase 1a pharmacokinetics in healthy volunteers, single IV administration
# Type: in vivo, human
# Study conditions: human, plasma, intravenous, 0.025 mg/kg, in 20 ml 0.9% NaCl, 10- and 60-min infusion; read-out: CL (converted)
Quantity name: clearance

Query: Consider the molecule shown here: CC1(C)C(=CC=C2CCCC(C=CC3=[N+](CCCCS(=O)(=O)[O-])c4ccc(S(=O)(=O)O)cc4C3(C)C)=C2Oc2ccc(CC(NC(=O)c3ccc(NCc4cnc5nc(N)[nH]c(=O)c5n4)cc3)C(=O)O)cc2)N(CCCCS(=O)(=O)O)c2ccc(S(=O)(=O)O)cc21 (stereo not shown) What is its recorded clearance?
Reply: 443 mL/min

====

# Run description: Single IV dose toxicokinetics in rats
# Type: in vivo
# Study conditions: rat, in vivo; female rats, 3.1 mg/kg single IV, Study Day 0
Quantity name: AUC(0-t) (ng·h/mL)
Please give a number only; it is taken to be in ng·h/mL.

Query: Consider the compound shown here: CC1(C)C(=CC=C2CCCC(C=CC3=[N+](CCCCS(=O)(=O)[O-])c4ccc(S(=O)(=O)O)cc4C3(C)C)=C2Oc2ccc(CC(NC(=O)c3ccc(NCc4cnc5nc(N)[nH]c(=O)c5n4)cc3)C(=O)O)cc2)N(CCCCS(=O)(=O)O)c2ccc(S(=O)(=O)O)cc21 (stereo not shown) [pafolacianine] What is its recorded AUC(0-t)?
Reply: 2530

====

# Run description: Repeat once-weekly IV dose toxicokinetics in dogs
# Assay type: in vivo
# Study conditions: female, dog, in vivo, iv, 9.3 mg/kg, dogs F, 9.3 mg/kg once-weekly IV, Day 0; read-out: T1/2 (converted)
Quantity name: half-life
Write the numeric value and follow it with the unit.

Query: Consider the molecule shown here: CC1(C)C(=CC=C2CCCC(C=CC3=[N+](CCCCS(=O)(=O)[O-])c4ccc(S(=O)(=O)O)cc4C3(C)C)=C2Oc2ccc(CC(NC(=O)c3ccc(NCc4cnc5nc(N)[nH]c(=O)c5n4)cc3)C(=O)O)cc2)N(CCCCS(=O)(=O)O)c2ccc(S(=O)(=O)O)cc21 (stereo not shown) [pafolacianine] What is its recorded half-life?
Reply: 15.2 h

====

# Run description: Repeat once-weekly IV dose toxicokinetics in dogs
# Assay type: in vivo
# Study conditions: male, dog, in vivo, iv, 13.9 mg/kg, dogs M, 13.9 mg/kg once-weekly IV, Day 0
Quantity name: C0
Write the numeric value and follow it with the unit.

Query: Consider the molecule shown here: CC1(C)C(=CC=C2CCCC(C=CC3=[N+](CCCCS(=O)(=O)[O-])c4ccc(S(=O)(=O)O)cc4C3(C)C)=C2Oc2ccc(CC(NC(=O)c3ccc(NCc4cnc5nc(N)[nH]c(=O)c5n4)cc3)C(=O)O)cc2)N(CCCCS(=O)(=O)O)c2ccc(S(=O)(=O)O)cc21 (stereo not shown) What is its recorded C0?
Reply: 81.8 µg/mL

====

# Run description: Repeat once-weekly IV dose toxicokinetics in rats
# Format: in vivo
# Study conditions: male, rat, in vivo, iv, 30.8 mg/kg, rats M, 30.8 mg/kg once-weekly IV, Day 13; read-out: Vss
Quantity name: Vd (L/kg)
Please give a number only; it is taken to be in L/kg.

Query: Consider the compound shown here: CC1(C)C(=CC=C2CCCC(C=CC3=[N+](CCCCS(=O)(=O)[O-])c4ccc(S(=O)(=O)O)cc4C3(C)C)=C2Oc2ccc(CC(NC(=O)c3ccc(NCc4cnc5nc(N)[nH]c(=O)c5n4)cc3)C(=O)O)cc2)N(CCCCS(=O)(=O)O)c2ccc(S(=O)(=O)O)cc21 (stereo not shown) [pafolacianine] What is its recorded Vd?
Reply: 1.15

====

# Run description: Single IV dose toxicokinetics in dogs
# Assay type: in vivo
# Study conditions: dog, in vivo; male dogs, 0.9 mg/kg single IV, Study Day 0, N = 2
Quantity name: AUC(0-t) (ng·h/mL)
Please give a number only; it is taken to be in ng·h/mL.

Query: Consider the molecule shown here: CC1(C)C(=CC=C2CCCC(C=CC3=[N+](CCCCS(=O)(=O)[O-])c4ccc(S(=O)(=O)O)cc4C3(C)C)=C2Oc2ccc(CC(NC(=O)c3ccc(NCc4cnc5nc(N)[nH]c(=O)c5n4)cc3)C(=O)O)cc2)N(CCCCS(=O)(=O)O)c2ccc(S(=O)(=O)O)cc21 (stereo not shown) What is its recorded AUC(0-t)?
Reply: 397

====

# Run description: Phase 1a pharmacokinetics in healthy volunteers, single IV administration
# Type: in vivo, human
# Study conditions: human, plasma, intravenous, 0.2 mg/kg, with pre-treatment of antihistamine (clemastine)
Quantity name: Tmax
Write the numeric value and follow it with the unit.

Query: Consider the molecule shown here: CC1(C)C(=CC=C2CCCC(C=CC3=[N+](CCCCS(=O)(=O)[O-])c4ccc(S(=O)(=O)O)cc4C3(C)C)=C2Oc2ccc(CC(NC(=O)c3ccc(NCc4cnc5nc(N)[nH]c(=O)c5n4)cc3)C(=O)O)cc2)N(CCCCS(=O)(=O)O)c2ccc(S(=O)(=O)O)cc21 (stereo not shown) [pafolacianine] What is its recorded Tmax?
Reply: 1 h

====

# Run description: Repeat once-weekly IV dose toxicokinetics in dogs
# Type: in vivo
# Study conditions: male, dog, in vivo, iv, 9.3 mg/kg, dogs M, 9.3 mg/kg once-weekly IV, Day 13
Quantity name: clearance (L/h/kg)
Please give a number only; it is taken to be in L/h/kg.

Query: Consider the compound shown here: CC1(C)C(=CC=C2CCCC(C=CC3=[N+](CCCCS(=O)(=O)[O-])c4ccc(S(=O)(=O)O)cc4C3(C)C)=C2Oc2ccc(CC(NC(=O)c3ccc(NCc4cnc5nc(N)[nH]c(=O)c5n4)cc3)C(=O)O)cc2)N(CCCCS(=O)(=O)O)c2ccc(S(=O)(=O)O)cc21 (stereo not shown) [pafolacianine] What is its recorded clearance?
Reply: 0.11

====

# Run description: Repeat once-weekly IV dose toxicokinetics in rats
# Format: in vivo
# Study conditions: male, rat, in vivo, iv, 46.3 mg/kg, rats M, 46.3 mg/kg once-weekly IV, Day 13
# Procedure: […] On both Day 1 and Day 13, increases in pafolacianine exposure (AUCinf) were trending slightly greater than dose proportional, noting that sparse blood sampling was employed so the variability in the AUCs could not be assessed. […] CL was slow (relative to hepatic blood flow) and Vss was moderate. Mean T1/2 ranged from approximately 6 to 11 hours.
Quantity name: AUC(0-inf) (µg·h/mL)
Please give a number only; it is taken to be in µg·h/mL.

Query: Consider the compound shown here: CC1(C)C(=CC=C2CCCC(C=CC3=[N+](CCCCS(=O)(=O)[O-])c4ccc(S(=O)(=O)O)cc4C3(C)C)=C2Oc2ccc(CC(NC(=O)c3ccc(NCc4cnc5nc(N)[nH]c(=O)c5n4)cc3)C(=O)O)cc2)N(CCCCS(=O)(=O)O)c2ccc(S(=O)(=O)O)cc21 (stereo not shown) [pafolacianine] What is its recorded AUC(0-inf)?
Reply: 380
